Hey, just so you know, these numbers are from paper PMC11479942.

Molecular target: T1, XPD wild type (ctXPD) (Chaetomium thermophilum (paper: C. …, UniProt G0RZH0 1-780))
T1 sequence: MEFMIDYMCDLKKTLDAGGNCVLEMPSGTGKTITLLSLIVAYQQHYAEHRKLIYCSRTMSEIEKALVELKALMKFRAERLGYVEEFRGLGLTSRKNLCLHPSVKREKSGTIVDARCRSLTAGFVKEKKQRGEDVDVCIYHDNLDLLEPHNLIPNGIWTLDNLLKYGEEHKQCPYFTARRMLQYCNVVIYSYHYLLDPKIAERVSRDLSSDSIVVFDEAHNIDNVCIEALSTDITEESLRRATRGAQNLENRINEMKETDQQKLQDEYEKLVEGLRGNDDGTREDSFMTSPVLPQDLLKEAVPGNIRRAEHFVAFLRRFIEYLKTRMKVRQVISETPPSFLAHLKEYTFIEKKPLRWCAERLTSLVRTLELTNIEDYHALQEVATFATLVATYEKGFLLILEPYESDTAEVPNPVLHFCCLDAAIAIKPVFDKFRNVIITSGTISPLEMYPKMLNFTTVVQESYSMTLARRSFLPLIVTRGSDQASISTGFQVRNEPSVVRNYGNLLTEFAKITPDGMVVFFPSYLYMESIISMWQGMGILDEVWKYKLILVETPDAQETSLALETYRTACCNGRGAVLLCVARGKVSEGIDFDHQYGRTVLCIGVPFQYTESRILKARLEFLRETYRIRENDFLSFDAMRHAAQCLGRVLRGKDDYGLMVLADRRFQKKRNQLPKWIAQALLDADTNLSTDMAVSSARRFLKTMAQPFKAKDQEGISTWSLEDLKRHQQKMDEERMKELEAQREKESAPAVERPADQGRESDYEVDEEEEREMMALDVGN
Assay: fluorescence anisotropy; 5 mM MgCl2, no nucleotide; Fluorescence anisotropy: 20 mM HEPES pH 7.5, 50 mM KCl, 5 mM MgCl2, 1 mM TCEP, 5 nM DNA, room temperature; cryo-EM: same buffer, 10 uM complex, DNA 1.25:1, 5 mM ATP
Conditions: protein: recombinant; tags: N-terminal 6xHis, TEV site (pBADM-11); label: 5' Cy3; hairpin with 5' overhang
property measured: Kd (nM)
Hi! Could you send only the number? It should be in nM, unit omitted.

The value of Kd measured for the binder TTTTTTTTTTTTTTTCCCGGCCATGCGAAGCATGGCCGTT (structured_DNA) [5' overhang self-annealing hairpin] turned out to be 30
